Target: Human immunodeficiency virus type 1 integrase (Human immunodeficiency virus 1, UniProt Q7ZJM1)
Sequence (Q7ZJM1 whole entry): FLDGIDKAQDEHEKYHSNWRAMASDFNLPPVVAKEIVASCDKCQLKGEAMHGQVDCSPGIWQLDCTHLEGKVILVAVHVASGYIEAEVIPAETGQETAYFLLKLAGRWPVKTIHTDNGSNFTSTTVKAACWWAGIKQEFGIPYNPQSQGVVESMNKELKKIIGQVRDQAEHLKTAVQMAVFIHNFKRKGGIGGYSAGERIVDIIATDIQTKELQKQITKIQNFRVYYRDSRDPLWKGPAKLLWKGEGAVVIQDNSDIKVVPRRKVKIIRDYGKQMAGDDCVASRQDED
Test: Inhibition of HIV1 integrase strand transfer activity
pIC50: −log10 of the molar value.
MEASURED_ENDPOINT: pIC50

P. Oc1ccc(Br)cc1/C=N/Nc1nc2nonc2nc1Nc1ccc(F)cc1
Q. O=C(NNC(=O)c1c(O)c2ccccc2[nH]c1=O)c1ccccc1F
**Query** Please indicate which has the smaller reported pIC50: P , or Q . Indicate which entry you chose by stating its label.
**Result** Q
(Q: 4.52, P: 4.96)

----------
Biological target: Human immunodeficiency virus type 1 integrase (Human immunodeficiency virus 1, UniProt Q7ZJM1)
Test: Inhibition of HIV1 integrase strand transfer activity
pIC50: −log10 of the molar value.
MEASURED_ENDPOINT: pIC50

[[record]]
smiles_input = "CCCn1c(=O)c(C(=O)NNC(=O)c2ccccc2)c(O)c2ccccc21"
measured_endpoint = "pIC50"
measured_result = 4.18

[[record]]
smiles_input = "Oc1ccc(Cl)cc1/C=C/c1ccc2cccc(O)c2n1"
measured_endpoint = "pIC50"
measured_result = 3.66


A. O=C(Oc1ccc(/C=N/Nc2nnc3c(n2)[nH]c2ccccc23)cc1)c1ccc(Br)cc1
B. Nc1ccc(C(=O)CC(=O)Nc2cc(C(=O)O)cc(C(=O)O)c2)cc1
**Query** Which shows the larger pIC50 value: A or B ? Write down the label of the entry you select.
**Result** B
(B: 4.37, A: 3.10)
